Origin of the recorded values: the supplement of paper PMC10883282

System: RD-ES
experiment: relative viability vs DMSO control (72 h) (fraction); higher = more viable cells
condition_set: 0.00051 µM
Counter-ions that a name gives are not always drawn.
observed_property: relative viability
One number for each entry.

Q: Entry under review: `CC[C@H](Nc1ncnc2[nH]cnc12)c1nc2cccc(F)c2c(=O)n1-c1ccccc1` . Reported relative viability?
Result: 0.99

Q: Entry under review: COc1cccc2c1C(=O)c1c(O)c3c(c(O)c1C2=O)C[C@@](O)(C(=O)CO)C[C@@H]3O[C@H]1C[C@H](N)[C@H](O)[C@H](C)O1 [Doxorubicin Hydrochloride] . Reported relative viability?
Result: 1.03

Q: Entry under review: `Cc1nc(-c2cn3c(n2)-c2ccc(-c4cnn(C(C)(C)C(N)=O)c4)cc2OCC3)n(C(C)C)n1` . Reported relative viability?
Result: 0.983

Q: Entry under review: `COc1c(OCCCN2CCOCC2)ccc2c1N=C(NC(=O)c1cnc(N)nc1)N1CCN=C21` . Reported relative viability?
Result: 0.932

Q: Entry under review: `COCc1c(-c2cc3cc(C)cc(OC)c3s2)c2c(N)ncnn2c1CN1CCNC(=O)C1` . Reported relative viability?
Result: 0.997

Each of the following entries comes with a recorded value; kindly state relative viability for each.
1. N#CC[C@H](C1CCCC1)n1cc(-c2ncnc3[nH]ccc23)cn1
2. C[C@@H]1CCN(C(=O)CC#N)C[C@@H]1N(C)c1ncnc2[nH]ccc12
3. Cn1cnc2c(F)c(Nc3ccc(Br)cc3F)c(C(=O)NOCCO)cc21
4. CO[C@H]1C[C@@H]2CC[C@@H](C)[C@@](O)(O2)C(=O)C(=O)N2CCCC[C@H]2C(=O)O[C@H]([C@H](C)C[C@@H]2CC[C@@H](OP(C)(C)=O)[C@H](OC)C2)CC(=O)[C@H](C)/C=C(\C)[C@@H](O)[C@@H](OC)C(=O)[C@H](C)C[C@H](C)/C=C/C=C/C=C/1C
5. COc1cc2/c(=N/c3ccc(Br)cc3F)nc[nH]c2cc1OCC1CCN(C)CC1

Result:
1: 0.967; 2: 0.962; 3: 0.949; 4: 0.978; 5: 0.949

----------
Test system: G401
experiment: relative viability vs DMSO control (72 h) (fraction); higher = more viable cells
condition_set: 0.1235 µM
observed_property: relative viability
Numbers only.

Q: Entry under review: `Cn1cc(-c2cc3c(N4CCN(c5ncc([C@@](C)(N)c6ccc(F)cc6)cn5)CC4)ncnn3c2)cn1` . Reported relative viability?
Result: 0.918

Q: Entry under review: `N#CC[C@H](C1CCCC1)n1cc(-c2ncnc3[nH]ccc23)cn1` . Reported relative viability?
Result: 0.99

Q: Entry under review: `Cc1nc(-c2cn3c(n2)-c2ccc(-c4cnn(C(C)(C)C(N)=O)c4)cc2OCC3)n(C(C)C)n1` . Reported relative viability?
Result: 0.68

// below: relative viability requested for another compound
Q: Entry under review: `COc1cc2c(Oc3ccc4[nH]c(C)cc4c3F)ncnc2cc1OCCCN1CCCC1` . Reported relative viability?
Result: 0.95

----------
Tested on: VA-ES-BJ
experiment: relative viability vs DMSO control (72 h) (fraction); higher = more viable cells
condition_set: 0.3704 µM
Threshold 0.8. relative viability below it: 1.0. relative viability at it or above: 0.0.

Q: Please check: relative viability for COc1cc2nccc(Oc3ccc(NC(=O)Nc4cc(C)on4)c(Cl)c3)c2cc1OC [Tivozanib] , strictly under 0.8 or not?
Result: 0.0

Q: Please check: relative viability for CN1CCN(c2ccc3nc(-c4c(N)c5c(F)cccc5[nH]c4=O)[nH]c3c2)CC1 [Dovitinib] , strictly under 0.8 or not?
Result: 0.0

Q: Please check: relative viability for COCc1c(-c2cc3cc(C)cc(OC)c3s2)c2c(N)ncnn2c1CN1CCNC(=O)C1 [Rogaratinib] , strictly under 0.8 or not?
Result: 0.0

Q: Please check: relative viability for CCN1CCN(Cc2ccc(Nc3ncc(F)c(-c4cc(F)c5nc(C)n(C(C)C)c5c4)n3)nc2)CC1 [Abemaciclib] , strictly under 0.8 or not?
Result: 1.0

Q: Please check: relative viability for CNC(=O)c1ccc(-c2cnc3ncc(Cc4ccc5ncccc5c4)n3n2)cc1F [Capmatinib] , strictly under 0.8 or not?
Result: 0.0

----------
Tested on: VA-ES-BJ
experiment: relative viability vs DMSO control (72 h) (fraction); higher = more viable cells
condition_set: 0.00017 µM
Provide the recorded relative viability for the entries that follow.
One number for each entry.

Q: Entry under review: `Cc1ccc(F)c(NC(=O)Nc2ccc(-c3cccc4[nH]nc(N)c34)cc2)c1` . Reported relative viability?
Result: 1.05

Q: Entry under review: `Cc1cc(C)c(/C=C2\C(=O)Nc3ccccc32)[nH]1` . Reported relative viability?
Result: 0.973

Q: Entry under review: `Cn1cc(-c2cc3c(N4CCN(c5ncc([C@@](C)(N)c6ccc(F)cc6)cn5)CC4)ncnn3c2)cn1` . Reported relative viability?
Result: 1.02

Next:
Q: Entry under review: CC(C)NC(=O)C1CCC(n2c(NC(=O)c3ccc(F)cc3)nc3ccc(CN4CCC(C(C)(C)O)CC4)cc32)CC1 (centres undefined) . Reported relative viability?
Result: 1.05

----------
Tested on: RD
experiment: relative viability vs DMSO control (72 h) (fraction); higher = more viable cells
condition_set: 0.01372 µM
observed_property: relative viability
Give bare numbers.

Example entries and their recorded answers appear below.
Q: Entry under review: `C=CC(=O)N1CCC([C@@H]2CCNc3c(C(N)=O)c(-c4ccc(Oc5ccccc5)cc4)nn32)CC1` . Reported relative viability?
Result: 0.952

Q: Entry under review: `CNC(=O)c1cc(Oc2ccc(NC(=O)Nc3ccc(Cl)c(C(F)(F)F)c3)c(F)c2)ccn1` . Reported relative viability?
Result: 1.13

Q: Entry under review: `N#CC[C@H](C1CCCC1)n1cc(-c2ncnc3[nH]ccc23)cn1` . Reported relative viability?
Result: 0.97

Q: Entry under review: `Cc1nc(NC(=O)N2CCC[C@H]2C(N)=O)sc1-c1ccnc(C(C)(C)C(F)(F)F)c1` . Reported relative viability?
Result: 1.05

Q: Entry under review: `Cn1cc(-c2cc3c(N4CCN(c5ncc([C@@](C)(N)c6ccc(F)cc6)cn5)CC4)ncnn3c2)cn1` . Reported relative viability?
Result: 1.05

Each of the following entries comes with a recorded value; kindly state relative viability for each.
1. CC(C)NC(=O)C1CCC(n2c(NC(=O)c3ccc(F)cc3)nc3ccc(CN4CCC(C(C)(C)O)CC4)cc32)CC1 (stereo not drawn)
2. Cn1cnc2c(F)c(Nc3ccc(Br)cc3F)c(C(=O)NOCCO)cc21
3. COc1cc2nccc(Oc3ccc(NC(=O)Nc4cc(C)on4)c(Cl)c3)c2cc1OC
4. Cc1ccc(NC(=O)c2ccc(CN3CCN(C)CC3)cc2)cc1Nc1nc(-c2cccnc2)cs1
5. Cc1cc(C)c(/C=C2\C(=O)Nc3ccccc32)[nH]1
6. COc1cc2c(Oc3ccc4[nH]c(C)cc4c3F)ncnc2cc1OCCCN1CCCC1
7. C=CC(=O)Nc1cccc(Oc2nc(Nc3ccc(N4CCN(C)CC4)cc3)nc3ccsc23)c1

Result:
1. 1.09
2. 0.798
3. 1.14
4. 1.01
5. 1.08
6. 1.09
7. 1.03

Q: Entry under review: `Cc1ccc(F)c(NC(=O)Nc2ccc(-c3cccc4[nH]nc(N)c34)cc2)c1` . Reported relative viability?
Result: 1.12

----------
Tested on: HT1080
experiment: relative viability vs DMSO control (72 h) (fraction); higher = more viable cells
condition_set: 0.01372 µM
observed_property: relative viability
Answers are plain numbers.

Q: Any idea what relative viability came out for `C[C@@H]1CCN(C(=O)CC#N)C[C@@H]1N(C)c1ncnc2[nH]ccc12` on HT1080?
Result: 1.1

Q: Any idea what relative viability came out for `COc1cc2/c(=N/c3ccc(Br)cc3F)nc[nH]c2cc1OCC1CCN(C)CC1` on HT1080?
Result: 1.03

Q: Any idea what relative viability came out for `COc1c(OCCCN2CCOCC2)ccc2c1N=C(NC(=O)c1cnc(N)nc1)N1CCN=C21` on HT1080?
Result: 1.1

// below: relative viability requested for another molecule
Q: Any idea what relative viability came out for `COCc1c(-c2cc3cc(C)cc(OC)c3s2)c2c(N)ncnn2c1CN1CCNC(=O)C1` on HT1080?
Result: 1.05

----------
Test system: SW1353
experiment: standardised AUC of viability dose-response curve (72 h) (fraction (0-1)); higher = less growth inhibition (more resistant)
Provide the recorded standardised AUC for the entries that follow.
Answers are plain numbers.

Example entries and their recorded answers appear below.
Q: Entry under review: C=CC(=O)N1CCC([C@@H]2CCNc3c(C(N)=O)c(-c4ccc(Oc5ccccc5)cc4)nn32)CC1 [ZANUBRUTINIB] . Reported standardised AUC?
Result: 0.934

Q: Entry under review: Cc1cc(C)c(/C=C2\C(=O)Nc3ccccc32)[nH]1 [SEMAXANIB] . Reported standardised AUC?
Result: 0.979

Q: Entry under review: CN1CCN(c2ccc3nc(-c4c(N)c5c(F)cccc5[nH]c4=O)[nH]c3c2)CC1 [DOVITINIB] . Reported standardised AUC?
Result: 0.86

Q: Entry under review: Cc1cnc(Nc2ccc(OCCN3CCCC3)cc2)nc1Nc1cccc(S(=O)(=O)NC(C)(C)C)c1 [FEDRATINIB] . Reported standardised AUC?
Result: 0.779

Each of the following entries comes with a recorded value; kindly state standardised AUC for each.
1. Nc1cc(C(F)(F)F)c(-c2cc(N3CCOCC3)nc(N3CCOCC3)n2)cn1 [BUPARLISIB]
2. N#CC[C@H](C1CCCC1)n1cc(-c2ncnc3[nH]ccc23)cn1 [RUXOLITINIB]
3. Cn1cc(-c2cc3c(N4CCN(c5ncc([C@@](C)(N)c6ccc(F)cc6)cn5)CC4)ncnn3c2)cn1 [AVAPRITINIB]
4. COc1cc2nccc(Oc3ccc(NC(=O)Nc4cc(C)on4)c(Cl)c3)c2cc1OC [TIVOZANIB]
5. C=CC(=O)Nc1cccc(Oc2nc(Nc3ccc(N4CCN(C)CC4)cc3)nc3ccsc23)c1 [OLMUTINIB]
6. CC(=O)Nc1cccc(-n2c(=O)n(C3CC3)c(=O)c3c(Nc4ccc(I)cc4F)n(C)c(=O)c(C)c32)c1 [TRAMETINIB]

Result:
[0.85, 0.982, 0.927, 0.97, 0.918, 0.709]

Each of the following entries comes with a recorded value; kindly state standardised AUC for each.
1. CNC(=O)c1cc(Oc2ccc(NC(=O)Nc3ccc(Cl)c(C(F)(F)F)c3)c(F)c2)ccn1 [REGORAFENIB]
2. Cc1ccc(F)c(NC(=O)Nc2ccc(-c3cccc4[nH]nc(N)c34)cc2)c1 [LINIFANIB]
3. C[C@@H](c1ccc2nccn2c1)n1nnc2ncc(-c3cnn(C)c3)nc21 [VOLITINIB]

Result:
0.958
0.993
0.991
